This section presents compounds with their documented melting point values.

Short answer for `NC(=O)c1cc2cc(Br)ccc2o1` : melting point was 210 to 213 °C

Short answer for `Cc1ccc(Cc2cnc(NCCCN(C)c3ncccc3C)[nH]c2=O)cn1` : melting point was 83 to 85 °C

Short answer for CC(=S)NCC1CN(c2ccc(N3CCC(=CC#N)C(F)C3)c(F)c2)C(=O)O1 (stereo unspecified) : melting point was 137 to 138 °C

Short answer for `Nc1ccc(Nc2c(NCc3ccco3)cc(C(=O)O)cc2S(=O)(=O)Nc2ccccc2N)cc1` : melting point was 182 °C

Short answer for COc1ccc2[nH]c(C)c(C3CN4CCC3CC4)c2c1 (stereo unspecified) : melting point was 232 to 234 °C

Short answer for `COc1ccccc1C(=O)c1cccnn1` : melting point was 125 to 126 °C

---

Assay endpoint: melting point (°C)

> print(dat)
                                   molecule  measured.result
1  O=C(O)Cc1ccc(COc2cccc(-c3c(-c4ccccc4)cnc4c(C(F)(F)F)cccc34)c2)cc1              122

[P] Cc1cccc(NC(=O)NCC(=O)N(CC(=O)OC(C)(C)C)c2cccc(Cl)c2)c1
[Q] O=C(NC1CC1)c1cc(Nc2nc(Cl)nc3ccoc23)[nH]n1
[R] COC1(c2cc(F)cc(Sc3ccc(C(=O)C(F)(F)F)cc3)c2)CCOCC1
**Query** Ascending by melting point, please. Returns: the labels listed in the requested order.
**Result** R, P, Q
(R: 63 °C, P: 110 °C, Q: 247 °C)

---

This section presents compounds with their documented melting point values.

Completed entries (count: 3):
> print(dat)
                                   compound  assay.endpoint  measured.result
1  CC12C=CC(=O)C=C1CCC1C2C(O)CC2(C)C1CC(OCCO)C2(O)C(=O)CO (stereo not given)   melting point    138 to 140 °C
2             O=c1ccn(-c2cc(Cl)ccc2Cl)[nH]1   melting point    201 to 202 °C
3  CCO/C(=C\c1ccc(OCCc2ccc(OS(C)(=O)=O)cc2)c(OC)c1)C(=O)O   melting point           147 °C

Short answer for `COc1c(F)ccc2ccc(Cl)nc12` : melting point was 85 to 86 °C

Short answer for `O=S1(=O)OCC(COC(C(F)(F)F)(C(F)(F)F)C(F)(F)F)(COC(C(F)(F)F)(C(F)(F)F)C(F)(F)F)CO1` : melting point was 90 to 91 °C

Short answer for `COc1cc(N)ccc1NC1=CC(=O)C(N)=CC1=O` : melting point was 267 °C

---

Assay endpoint: melting point

> print(dat)
                                   compound  measured.result
1  COC(=O)[C@H](O)[C@@H](NC(=O)OC(C)(C)C)c1ccccc1    130 to 132 °C
2                      Sc1nccc(-c2ccccc2)n1    203 to 205 °C
3   COC(=O)CCCC(=N)Nc1[nH]c2ccccc2c1C(=O)OC            95 °C

Short answer for `CCOc1cccc(CC(=O)O)c1OCCCc1cc(OC(C)C)nn1Cc1ccc(Cl)cc1Cl` : melting point was 132 to 133 °C

Short answer for CCC1c2cccn2-c2ccc(F)cc2N1C(=O)c1cccc(O)c1 (stereo unspecified) : melting point was 115 to 117 °C

Short answer for `O=C(CCl)OCN1C(=O)CN(CCN2CC(=O)N(COC(=O)CCl)C(=O)C2)CC1=O` : melting point was 132 to 134 °C

Short answer for CC(=O)N(C)C(Cc1ccncc1)C(=O)O (stereo unspecified) : melting point was 86 to 88 °C

Short answer for `Cc1cc(CCc2cc(O)c(=O)[nH]n2)ccc1C(F)(F)F` : melting point was 174 to 175 °C

Short answer for CC(C)C(c1cncnc1C(F)(F)F)N(C)C(=O)Cc1ccccn1 (stereo unspecified) : melting point was 99 to 100 °C
